Tested on: MS2 coat protein
TEST DETAILS: apparent KD of MS2 coat protein; designed switch direction (-1 OFF switch, 1 ON switch): -1; higher = weaker reporter binding
CONDITIONS USED: Eterna round: R95; input ligand: FMN 200 uM
Class membership depends on apparent KD of MS2 coat protein alone; the intervals are bottom: < 0.02 µM; middle: ≥ 0.02 µM and < 0.08 µM; top: ≥ 0.08 µM

Exam item: GET /class?item= GGUCCUCCGGAGGAUAUGGAACUGGAGGUAGUACCAGAAGGCCGAACAUGAGGAUCACCCAUGUGCCCGUAAAA [Aarlean] (puzzle: Exclusion 6)
Marked response: middle

Exam item: GET /class?item= GACCUCACGGUCAGGAUAUCAGAACGGAAUGCGCAUGAGAAGGGACAUGAGGAUCACCCAUGUGGGCUCGUCGC [Eddionce] (puzzle: Brourd's mod of Exclusion 4)
Marked response: middle

Exam item: GET /class?item= GAUUGACAUGAGGAUCACCCAUGUGAGGAUAUCGUCUGGUACGUGUUGGCUGGCAUCUCGAGAAGGCGCAUAGG [Exclusion 1 V56] (puzzle: Exclusion 1)
Marked response: top

Exam item: GET /class?item= UUUAAUUUUUUUUUUUUACAAGCUUUUUGCUCGUCUUAUACAUGAGGAUCACCCAUGUGGGUGGAAGAUAAAUUAUC [JMF 12] (puzzle: Sensor v3, turn-off variant 2)
Marked response: top

Exam item: GET /class?item= ACGUGAUAUCUGUCGUUGGACAUGAGGAUCACCCAUGUAAGCUUUUUGCUCGUCUUAUAACCCGGUGACAGACCUUC [Dienlave] (puzzle: Sensor v3, turn-off variant 1)
Marked response: middle

Exam item: GET /class?item= GGUUGGCGAGGAUAUACAUGAGGAUCACCCAUGUGAGAGAGAAAAGUGAGGAAGAAAAGUAGAAGGCGCUGACG [salish99_ex3_r3_003] (puzzle: Exclusion 3)
Marked response: top

Exam item: GET /class?item= AAGAAACAUGAGGAUCACCCAUGUGAGGAUAUGAAGAAGAAAAGAAAAGAAAGAAGAAUCAGAAGGCACAAAGG [salish99-ex1_r3_046] (puzzle: Exclusion 1)
Marked response: middle

Exam item: GET /class?item= AGUACAAACACGAAAGUGUUUGUACAAUAAGCUUGUGGAACAUGAGGAUCACCCAUGUCCUCAUAAGCUCGUCUUAU [Mat - Sensor v3 - Turn-off var 2 - D29] (puzzle: Sensor v3, turn-off variant 2)
Marked response: bottom

Exam item: GET /class?item= AGUACUACCACGAAAGUGUUAGUACAAUAAGCUUGUGAAACAUGAGGAUCACCCAUGUCCUCAUAAGCUCGUCUUAU [salish99_TOv2_r3_021] (puzzle: Sensor v3, turn-off variant 2)
Marked response: bottom

====

Test system: MS2 coat protein
TEST DETAILS: apparent KD of MS2 coat protein; designed switch direction (-1 OFF switch, 1 ON switch): 1; higher = weaker reporter binding
CONDITIONS USED: input ligand: FMN 200 uM
MEASURED METRIC: apparent KD of MS2 coat protein (nM)
Return type: number; implicit unit nM.

Exam item: Item: AGAUCAUGACGAGGAUAUGGAACAUGAGGAUCACCCAUGUAUGUUCCAUAACGCGAACGACGAAUCCAGAAGGCGUCGUGAUCA [Mat - Same State NG 2 - JL mod - D42] (Eterna round: R96, puzzle: Same State NG 2) Test system: MS2 coat protein Read-out: apparent KD of MS2 coat protein Value: ?
Marked response: 5.24

Exam item: Item: UUAACAUGAGGAUCACCCAUGUAUGCGUAGCUUGCAUUUUGACAGGAUAUUGAAUAUCUAUAUAGCAAGAAGGGUCGUUAGUCU [JR_SSNG3_Sub008] (Eterna round: R96, puzzle: Same State NG 3) Test system: MS2 coat protein Read-out: apparent KD of MS2 coat protein Value: ?
Marked response: 91.8

Exam item: Item: AGGCUGAGUCGAGGAUAUUAUGGAUCCUCUAAUACAUGAGGAUCACCCAUGUAAUUAAUUAUACAUGAGAAGGUGACUCAGCCA [SSNG2/12-B3] (Eterna round: R96, puzzle: Same State NG 2) Test system: MS2 coat protein Read-out: apparent KD of MS2 coat protein Value: ?
Marked response: 612

Exam item: Item: GCUAGAAUCAAAGCCAACAUGAGGAUCACCCAUGUAUGUUGGUAGGAUAUCGUUUGCUUUGCAAACGAGAAGGACCAAACUAGC [SameState NG3 #1] (Eterna round: R96, puzzle: Same State NG 3) Test system: MS2 coat protein Read-out: apparent KD of MS2 coat protein Value: ?
Marked response: 30.2
